Test system: chickweed (common chickweed, Stellaria media)
assay protocol: Test D pre-/postemergence: chickweed
Format: in vivo
condition: Postemergence, 62 g ai/ha; scale 0 to 100 (0 no effect, 100 complete control)
property measured: Plant response rating: Chickweed
// return just the number, without any unit appended

Suppose we examine the molecule Cc1nn(-c2ccc(F)cc2)nc1Cc1ccnc(C(F)(F)F)c1 [Compound 16] ; what Plant response rating: Chickweed value has been reported?
90

Suppose we examine the molecule Cc1nn(-c2ccc(F)c(C(F)(F)F)c2)nc1Oc1ccnc(C(F)(F)F)c1 [Compound 147] ; what Plant response rating: Chickweed value has been reported?
80

Suppose we examine the molecule Cc1nn(-c2ccc(F)c(F)c2)nc1Oc1ccnc(C(F)(F)F)c1 [Compound 145] ; what Plant response rating: Chickweed value has been reported?
80

Suppose we examine the molecule Cc1nn(-c2ccnc(C(F)(F)F)c2)nc1Cc1ccnc(C(F)(F)F)c1 [Compound 137] ; what Plant response rating: Chickweed value has been reported?
80

###

Provide the recorded Plant response rating, Barnyardgrass for the entries that follow.
System: barnyardgrass (Echinochloa crus-galli)
assay protocol: Test C flooded paddy test: barnyardgrass
Format: in vivo
condition: Flood (flooded paddy test), 250 g ai/ha; visual rating after 13 to 15 days, scale 0 to 100 (0 no effect, 100 complete control)
// return just the number, without any unit appended

Suppose we examine the molecule Cc1nn(-c2ccc(C(F)(F)F)cc2)nc1Cn1ccc(C(F)(F)C(F)(F)F)n1 ; what Plant response rating, Barnyardgrass value has been reported?
60

Suppose we examine the molecule Cc1nn(-c2ccc(C(F)(F)F)cc2)nc1Oc1cnn(CC(F)(F)F)c1 ; what Plant response rating, Barnyardgrass value has been reported?
0

Suppose we examine the molecule Cc1nn(-c2ccc(C(F)(F)F)nc2)nc1C(=O)c1cccc(C(F)(F)F)c1 ; what Plant response rating, Barnyardgrass value has been reported?
0

Suppose we examine the molecule Cc1nn(-c2ccc(C(F)(F)F)cn2)nc1Cn1ccc(C(F)(F)F)n1 ; what Plant response rating, Barnyardgrass value has been reported?
20

###

Test system: ragweed (common ragweed, Ambrosia elation)
assay protocol: Test C pre-/postemergence: ragweed
Type: in vivo
condition: Preemergence, 62 g ai/ha; scale of 0 to 100, 0 is no effect, 100 is complete control
From the text: […] Treated plants and controls were maintained in a greenhouse for 13 to 15 days, after which time all species were compared to controls and visually evaluated. […]
Provide the recorded Plant response rating, Ragweed for the entries that follow.
// return just the number, without any unit appended

Suppose we examine the molecule Cc1nn(-c2ccc(F)c(F)c2)nc1Oc1ccnc(C(F)(F)F)c1 ; what Plant response rating, Ragweed value has been reported?
10

Suppose we examine the molecule CCCc1nn(-c2ccc(F)cc2)nc1Cc1ccnc(C(F)(F)F)c1 ; what Plant response rating, Ragweed value has been reported?
10

Suppose we examine the molecule Cc1nn(-c2ccc(F)c(C(F)(F)F)c2)nc1Oc1ccnc(C(F)(F)F)c1 ; what Plant response rating, Ragweed value has been reported?
40

Suppose we examine the molecule Fc1ccc(-n2nc(Cc3ccnc(C(F)(F)F)c3)c(OCC(F)(F)F)n2)cc1 ; what Plant response rating, Ragweed value has been reported?
40

###

Tested on: bermudagrass (Cynodon dactylon)
assay protocol: Test C pre-/postemergence: bermudagrass
Type: in vivo
condition: Preemergence, 250 g ai/ha; scale 0 to 100, 0 no effect, 100 complete control
property measured: Plant response rating, Bermudagrass
// return just the number, without any unit appended

Suppose we examine the compound Cc1nn(-c2ccc(F)c(C(F)(F)F)c2)nc1Oc1ccnc(C(F)(F)F)c1 [Compound 147] ; what Plant response rating, Bermudagrass value has been reported?
100

Suppose we examine the compound Fc1ccc(-n2nc(Cc3ccnc(C(F)(F)F)c3)c(OCC(F)(F)F)n2)cc1 [Compound 142] ; what Plant response rating, Bermudagrass value has been reported?
98

Suppose we examine the compound Cc1nn(-c2ccc(F)cc2)nc1Cc1ccnc(C(F)(F)F)c1 [Compound 16] ; what Plant response rating, Bermudagrass value has been reported?
75

Suppose we examine the compound Cc1nn(-c2ccc(F)c(F)c2)nc1Oc1ccnc(C(F)(F)F)c1 [Compound 145] ; what Plant response rating, Bermudagrass value has been reported?
98

###

Test system: velvetleaf (Abutilon theophrasti)
assay protocol: Test C pre-/postemergence: velvetleaf
Format: in vivo
condition: Preemergence, 250 g ai/ha; scale 0 to 100, 0 no effect, 100 complete control
Excerpt: […] Treated plants and controls were maintained in a greenhouse for 13 to 15 days, after which time all species were compared to controls and visually evaluated. […]
property measured: Plant response rating, Velvetleaf
// return just the number, without any unit appended

Provide value of Plant response rating, Velvetleaf for this record tested with velvetleaf (Abutilon theophrasti): CCc1nn(-c2ccc(F)cc2)nc1Oc1ccnc(C(F)(F)F)c1
60

Provide value of Plant response rating, Velvetleaf for this record tested with velvetleaf (Abutilon theophrasti): Cc1nn(-c2ccc(F)c(C(F)(F)F)c2)nc1Oc1ccnc(C(F)(F)F)c1
100

Provide value of Plant response rating, Velvetleaf for this record tested with velvetleaf (Abutilon theophrasti): CCCc1nn(-c2ccc(F)cc2)nc1Cc1ccnc(C(F)(F)F)c1
100

Provide value of Plant response rating, Velvetleaf for this record tested with velvetleaf (Abutilon theophrasti): Cc1nn(-c2ccc(C(F)(F)F)cc2)nc1Cc1ccnc(C(F)(F)F)c1
100

Provide value of Plant response rating, Velvetleaf for this record tested with velvetleaf (Abutilon theophrasti): Cc1nn(-c2ccc(C(F)(F)F)c(F)c2)nc1Cc1ccnc(C(F)(F)F)c1
100

###

Tested on: soybean (Glycine max)
assay protocol: Test C pre-/postemergence: soybean
Type: in vivo
condition: Preemergence, 62 g ai/ha; scale of 0 to 100, 0 is no effect, 100 is complete control
property measured: Plant response rating, Soybean
// return just the number, without any unit appended

Suppose we examine the compound Cc1nn(-c2ccc(F)cc2)nc1Oc1ccnc(C(F)(F)F)c1 [Compound 129] ; what Plant response rating, Soybean value has been reported?
0

Suppose we examine the compound CCCc1nn(-c2ccc(C(F)(F)F)c(F)c2)nc1Oc1ccnc(C(F)(F)F)c1 [Compound 185] ; what Plant response rating, Soybean value has been reported?
10

Suppose we examine the compound Cc1nn(-c2ccc(F)c(C(F)(F)F)c2)nc1Oc1ccnc(C(F)(F)F)c1 [Compound 147] ; what Plant response rating, Soybean value has been reported?
20

Suppose we examine the compound Cc1nn(-c2ccc(F)c(F)c2)nc1Oc1ccnc(C(F)(F)F)c1 [Compound 145] ; what Plant response rating, Soybean value has been reported?
5

###

Tested on: pigweed (Amaranthus retroflexus)
assay protocol: Test A pre-/postemergence: pigweed
Format: in vivo
condition: Postemergence, 500 g ai/ha; visual rating on 0 to 100 scale (0 no effect, 100 complete control), approximately ten days
Simple rule here: Pigweed plant response rating less than 80 is True, otherwise False.

Below 80 on Pigweed plant response rating? Entry Cc1nn(-c2ccnc(F)c2)nc1C(=O)c1cccc(C(F)(F)F)c1 [Compound 3]
False

Below 80 on Pigweed plant response rating? Entry Cc1nn(-c2cccc(C(F)(F)F)n2)nc1C(=O)c1cccc(C(F)(F)F)c1 [Compound 57]
True

Below 80 on Pigweed plant response rating? Entry Cc1cc(Oc2nn(-c3ccc(F)cc3)nc2C)ccc1F [Compound 86]
True

Below 80 on Pigweed plant response rating? Entry Cc1nn(-c2ccc(F)cc2)nc1Cn1cnc(C(F)(F)F)c1 [Compound 112]
False

Below 80 on Pigweed plant response rating? Entry CCCc1nn(-c2ccc(F)cc2)nc1Cc1ccnc(C(F)(F)F)c1 [Compound 153]
False

Below 80 on Pigweed plant response rating? Entry Cc1nn(-c2ccc(C(F)(F)F)cc2)nc1Cn1ccc(C(F)(F)C(F)(F)F)n1 [Compound 12]
False

Below 80 on Pigweed plant response rating? Entry CCc1nn(-c2cccc(C(F)(F)F)c2)nc1Cc1cccc(C(F)(F)F)c1 [Compound 143]
False

Below 80 on Pigweed plant response rating? Entry Cc1nn(-c2ccc(Cl)cc2)nc1C(=O)c1cccc(C(F)(F)F)c1 [Compound 42]
False

Below 80 on Pigweed plant response rating? Entry COc1nn(-c2ccc(C(F)(F)F)cc2)nc1Cc1cccc(C(F)(F)F)c1 [Compound 29]
False

Below 80 on Pigweed plant response rating? Entry CCc1nn(-c2ccc(C(F)(F)F)cc2)nc1Cn1cc(C(F)(F)F)nc1Cl [Compound 122]
False

Below 80 on Pigweed plant response rating? Entry Cc1nn(-c2ccc(Cl)cc2)nc1Oc1ccnc(C(F)(F)F)c1 [Compound 52]
False

Below 80 on Pigweed plant response rating? Entry Cc1nn(-c2ccc(F)cc2)nc1Cc1ccnc(OCC(F)(F)F)c1 [Compound 33]
True

Below 80 on Pigweed plant response rating? Entry Cc1nn(-c2ccc(C(F)(F)F)nc2)nc1C(=O)c1cccc(C(F)(F)F)c1 [Compound 73]
False

Below 80 on Pigweed plant response rating? Entry Fc1ccc(-n2nc(F)c(Cc3ccnc(C(F)(F)F)c3)n2)cc1 [Compound 159]
False

Below 80 on Pigweed plant response rating? Entry Cc1nn(-c2cccc(C(F)(F)F)c2)nc1Oc1ccnc(C(F)(F)F)c1 [Compound 40]
False
